MIC data for Bacillus subtilis ATCC 6633 follow.
Recorded metric: MIC (µg/mL)

1) C#CCO/N=C(\C(=O)NC1C(=O)N2C(C(=O)[O-])=C(CSc3cc[n+](CC)c4cc(N5CCN(CC)CC5)c(F)cc34)CSC12)c1csc(N)n1 (stereo not shown) [Compound I-47] | 0.2
2) CCN1CCN(c2cc3c(cc2F)c(SCC2=C(C(=O)[O-])N4C(=O)C(NC(=O)/C(=N\OC)c5csc(N)n5)C4SC2)cc[n+]3CC)CC1 (stereo not shown) [Compound I-11] | 0.1
3) CC(C)(O/N=C(\C(=O)NC1C(=O)N2C(C(=O)[O-])=C(CSc3cc[n+](C4CC4)c4cc(N5CCNCC5)c(F)cc34)CS[C@H]12)c1csc(N)n1)C(=O)O (stereo partly shown) [Compound I-57] | 0.78

(P) CN1CCN(c2cc3c(cc2F)c(SCC2=C(C(=O)[O-])N4C(=O)C(NC(=O)/C(=N\OC(C)(C)C(=O)O)c5csc(N)n5)C4SC2)cc[n+]3C)CC1 (stereo not shown) [Compound I-54]
(Q) C=CCO/N=C(\C(=O)NC1C(=O)N2C(C(=O)[O-])=C(CSc3cc[n+](C4CC4)c4cc(N5CCN(CC)CC5)c(F)cc34)CSC12)c1csc(N)n1 (stereo not shown) [Compound I-27]
Problem: From the items above, decide which of P and Q has the lower MIC reading. Pick one; state its label.
Result: Q

(1) C=CCO/N=C(\C(=O)NC1C(=O)N2C(C(=O)[O-])=C(CSc3cc[n+](CC)c4cc(N5CCN(CC)CC5)c(F)cc34)CSC12)c1csc(N)n1 (stereo not shown) [Compound I-31]
(2) C#CCO/N=C(\C(=O)NC1C(=O)N2C(C(=O)[O-])=C(CSc3cc[n+](CC=C)c4cc(N5CCN(C)CC5)c(F)cc34)CSC12)c1csc(N)n1 (stereo not shown) [Compound I-50]
(3) C#CCO/N=C(\C(=O)NC1C(=O)N2C(C(=O)[O-])=C(CSc3cc[n+](CC=C)c4cc(N5CCNCC5)c(F)cc34)CS[C@H]12)c1csc(N)n1 (stereo partly shown) [Compound I-49]
(4) CC[n+]1ccc(SCC2=C(C(=O)[O-])N3C(=O)C(NC(=O)/C(=N\OC)c4csc(N)n4)C3SC2)c2cc(F)c(N3CCNCC3)cc21 (stereo not shown) [Compound I-9]
Problem: Highest MIC first, then in falling order down to the smallest. When ranking, write the labels in the order the request describes.
Result: 2, 3, 1, 4
(2: 0.78 µg/mL, 3: 0.39 µg/mL, 1: 0.2 µg/mL, 4: 0.1 µg/mL)

(P) CCN1CCN(c2cc3c(cc2F)c(SCC2=C(C(=O)[O-])N4C(=O)C(NC(=O)/C(=N\OC(C)(C)C(=O)O)c5csc(N)n5)C4SC2)cc[n+]3C)CC1 (stereo not shown) [Compound I-55]
(Q) C=CCO/N=C(\C(=O)NC1C(=O)N2C(C(=O)[O-])=C(CSc3cc[n+](C4CC4)c4cc(N5CCN(C)CC5)c(F)cc34)CSC12)c1csc(N)n1 (stereo not shown) [Compound I-26]
Problem: Response body: label of entry with the larger MIC; valid values P , Q . // output: label of the selected item
Result: P
(P: 0.2 µg/mL, Q: 0.1 µg/mL)
